method_description: Drug metabolism in human liver microsomes assessed as glucuronidation of compound measured as compound remaining after 30 mins by LC/MS analysis
Type: ADME
experimental_conditions: read-out: Stability
property: remaining at 0.5 h (%)
The response must be a number in % with no trailing unit.

INPUT: Give a short answer stating reported remaining at 0.5 h for O=c1[nH]nc(CCc2cc(F)cc(F)c2)cc1O .
OUTPUT: 81

* * *

method_description: Drug metabolism in mouse liver microsomes assessed as glucuronidation of compound measured as compound remaining after 30 mins by LC/MS analysis
Type: ADME
experimental_conditions: read-out: Stability
property: remaining at 0.5 h (%)
The response must be a number in % with no trailing unit.

Take a look at these entries with their results.
O=C(O)c1cc(CCc2ccc(Cl)cc2)n[nH]1	103
O=c1[nH]nc(CCc2cc(F)cc(F)c2)cc1O	77
O=c1cc(CSc2ccc(Cl)c(Cl)c2)occ1O	20
O=C(O)c1cc2sccc2[nH]1	98

Shift focus to the following entry.
INPUT: Give a short answer stating reported remaining at 0.5 h for Oc1noc2cc(Cl)ccc12 .
OUTPUT: 58
